The measured values listed here are drawn from patent US20250025553A1.

Tested on: PANC-1 pancreatic cancer cell line
Assay: MTT cell proliferation assay, PANC-1
Assay type: cell-based, human
Details: Homo sapiens; PANC-1, MTT, 72 hr incubation, repeated 8 times; read-out: IC50 of 5FU (concentration at which 50% of cells were not viable)
pIC50: −log10 of the molar value.

Compound	pIC50
O=c1[nH]cc(F)c(=O)[nH]1 [5FU, 5-fluorouracil, reference compound]	3.00

====

Test system: triple-negative breast cancer cell line HCC1806
Experiment: MTT cell proliferation assay, HCC1806
Conditions: read-out: IC50 of cisplatin (concentration at which 50% of cells were not viable); HCC1806, MTT, repeated four times

Molecule	IC50, nM
N.N.[Cl][Pt][Cl] [cisplatin, reference compound]	650
